# procedure.text: Chemical stability in human plasma
# Type: in vitro ADME
# condition.description: pooled human plasma, 37 °C, 2.5 μM, 0, 30, 60, 120 min
measurement.label: Stability in human plasma (in words)

Cc1cccc(C(=O)n2cc3c(n2)CCCC3=O)c1	rapid degradation rate
Cc1cccc(C(=O)n2ncc3c2CCCC3=O)c1	rapid degradation rate
